Numbers sourced from patent US20230092890A1.

measured target: HDAC6 human recombinant (Homo sapiens)
Construct: purchased Calbiochem 382180
assay comment: HDAC enzyme activity inhibition (in vitro), HDAC6 assay
Assay type: biochemical
study conditions: samples at 0.1, 1, 10, 100 and 1000 nM; 37° C. 60 minutes; fluorescence Ex 390, Em 460; read-out: HDAC6 IC50
pIC50: −log10 of the molar value.
observation type: pIC50

[1] O=c1oc2cc(Cl)c(-c3cccnc3)cc2n1Cc1ccc(-c2nnc(C(F)F)o2)cn1 [Compound 229]
[2] CN1CCC(n2c(=O)n(Cc3ccc(-c4nnc(C(F)F)o4)cn3)c3cc(Cl)c(Cl)cc32)CC1 [Compound 81]
[3] CN1CCC(n2c(=O)n(Cc3ccc(-c4nnc(C(F)F)o4)cc3F)c3cc(C(F)(F)F)ccc32)CC1 [Compound 91]
[in] Sort ascending by pIC50: all records listed above. Give the order by naming the labels one after another as requested.
[out] 1, 3, 2

[P] O=c1oc2cc(-c3ccnc(N4CCN(C5CCC5)CC4)c3)c(F)cc2n1Cc1ccc(-c2nnc(C(F)F)o2)cn1 [Compound 367]
[Q] Cn1c(=O)n(Cc2ccc(-c3nnc(C(F)F)o3)cn2)c2ccc(-c3cccnc3)cc21 [Compound 208]
[R] Cc1noc(C)c1-c1ccc2c(c1)n(C1CCN(C)CC1)c(=O)n2Cc1ccc(-c2nnc(C(F)F)o2)cn1 [Compound 210]
[in] Hi! Can you put these in order of pIC50, lowest number first? Give the order by naming the labels one after another as requested.
[out] P, R, Q
(P: 6.51, R: 7.42, Q: 7.89)

* * *

measured target: HDAC6 human recombinant (Homo sapiens)
Construct: purchased Calbiochem 382180
Sequence (Q9UBN7 1-1215): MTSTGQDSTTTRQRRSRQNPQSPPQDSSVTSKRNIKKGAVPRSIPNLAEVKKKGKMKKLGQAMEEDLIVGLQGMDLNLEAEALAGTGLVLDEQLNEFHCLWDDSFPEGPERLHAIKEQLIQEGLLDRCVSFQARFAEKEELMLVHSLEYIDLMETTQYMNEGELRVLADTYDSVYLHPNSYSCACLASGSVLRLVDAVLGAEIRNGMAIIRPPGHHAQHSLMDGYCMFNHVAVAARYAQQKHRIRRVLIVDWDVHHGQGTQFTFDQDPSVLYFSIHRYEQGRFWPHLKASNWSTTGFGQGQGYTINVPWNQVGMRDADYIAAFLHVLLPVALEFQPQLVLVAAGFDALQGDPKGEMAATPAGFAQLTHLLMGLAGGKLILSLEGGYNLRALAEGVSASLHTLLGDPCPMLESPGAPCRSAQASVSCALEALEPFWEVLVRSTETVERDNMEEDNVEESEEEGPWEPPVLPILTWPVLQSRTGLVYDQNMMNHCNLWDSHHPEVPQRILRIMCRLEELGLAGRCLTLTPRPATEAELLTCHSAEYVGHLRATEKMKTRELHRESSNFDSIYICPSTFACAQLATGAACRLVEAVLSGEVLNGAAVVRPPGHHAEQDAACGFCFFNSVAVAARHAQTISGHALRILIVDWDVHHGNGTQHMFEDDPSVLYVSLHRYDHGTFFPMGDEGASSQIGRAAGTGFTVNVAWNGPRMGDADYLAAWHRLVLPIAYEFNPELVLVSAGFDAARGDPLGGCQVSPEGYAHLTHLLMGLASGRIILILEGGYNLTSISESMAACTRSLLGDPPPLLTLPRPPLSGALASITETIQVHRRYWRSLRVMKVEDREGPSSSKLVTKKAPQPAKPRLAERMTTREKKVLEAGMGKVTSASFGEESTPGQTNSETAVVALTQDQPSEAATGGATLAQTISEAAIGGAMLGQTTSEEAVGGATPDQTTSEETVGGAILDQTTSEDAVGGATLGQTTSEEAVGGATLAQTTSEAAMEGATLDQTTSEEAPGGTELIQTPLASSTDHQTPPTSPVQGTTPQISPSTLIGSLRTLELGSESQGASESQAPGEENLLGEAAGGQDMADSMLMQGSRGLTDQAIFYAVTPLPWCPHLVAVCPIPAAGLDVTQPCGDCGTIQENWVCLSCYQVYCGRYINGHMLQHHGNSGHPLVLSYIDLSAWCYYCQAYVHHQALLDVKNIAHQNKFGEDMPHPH
assay comment: HDAC enzyme activity inhibition (in vitro), HDAC6 assay
Assay type: biochemical
study conditions: samples at 0.1, 1, 10, 100 and 1000 nM; 37° C. 60 minutes; fluorescence Ex 390, Em 460; read-out: HDAC6 IC50
pIC50: −log10 of the molar value.
observation type: pIC50

1. COC(=O)c1cc2ccc(-c3ccc4c(c3)n(C)c(=O)n4Cc3ccc(-c4nnc(C(F)F)o4)cn3)cc2[nH]1 ... 7.13
2. Cn1c(=O)n(Cc2ccc(-c3nnc(C(F)F)o3)cc2)c2cc(F)ccc21 ... 7.11
3. CN1CCC(n2c(=O)n(Cc3ccc(-c4nnc(C(F)F)o4)cc3F)c3cc(F)c(Br)cc32)CC1 ... 7.19
4. CS(=O)(=O)N1CCC(n2c(=O)n(Cc3ccc(-c4nnc(C(F)F)o4)cc3F)c3ccc(Cl)cc32)CC1 ... 7.15
